settings: human;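 note: value is a count of indexed literature references reporting granulomatous liver disease confirmed by histopathology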
Recorded Hepatotoxicity (granulomatous hepatitis) for the following compounds

compound: C[C@]12C/C(=C/O)C(=O)C[C@@H]1CC[C@@H]1[C@@H]2CC[C@@]2(C)[C@H]1CC[C@]2(C)O
Hepatotoxicity (granulomatous hepatitis): 0
//
compound: Cc1ccc2c(c1)C(N1CCN(C)CC1)=Nc1ccccc1S2
Hepatotoxicity (granulomatous hepatitis): 0
//
compound: CCN(CC)CCCN(c1ccccc1)C1Cc2ccccc2C1
Hepatotoxicity (granulomatous hepatitis): 1
//
compound: CCC(C)n1ncn(-c2ccc(N3CCN(c4ccc(OCC5COC(Cn6cncn6)(c6ccc(Cl)cc6Cl)O5)cc4)CC3)cc2)c1=O (centres undefined)
Hepatotoxicity (granulomatous hepatitis): 0
//
compound: CCC(c1ccccc1)c1c(O)c2ccccc2oc1=O (centres undefined)
Hepatotoxicity (granulomatous hepatitis): 1
//
compound: NCc1ccccc1CC(=O)N[C@@H]1C(=O)N2C(C(=O)O)=C(CSc3nnnn3CC(=O)O)CS[C@H]12 [CEFORANIDE]
Hepatotoxicity (granulomatous hepatitis): 0
//
compound: Clc1ccc(COC(Cn2ccnc2)c2ccc(Cl)cc2Cl)c(Cl)c1 (centres undefined)
Hepatotoxicity (granulomatous hepatitis): 0
//
compound: CCCCCCCCNC(C)C(O)c1ccc(SC(C)C)cc1 (centres undefined)
Hepatotoxicity (granulomatous hepatitis): 0
//
compound: O=C1NC(=S)NC(=O)C1C(=O)Nc1ccccc1
Hepatotoxicity (granulomatous hepatitis): 0
//
compound: C=C[C@H]1C[N@@]2CC[C@H]1C[C@H]2[C@H](O)c1ccnc2ccc(OC)cc12
Hepatotoxicity (granulomatous hepatitis): 4
//
compound: CC(=O)N[C@@H]1[C@H](Oc2c3cc4cc2Oc2ccc(cc2Cl)[C@@H](O[C@@H]2O[C@@H](CO)[C@@H](O)[C@H](O)[C@@H]2NC(C)=O)[C@@H]2NC(=O)[C@H](NC(=O)[C@@H]4NC(=O)[C@H]4NC(=O)[C@@H](Cc5ccc(c(Cl)c5)O3)NC(=O)[C@H](N)c3ccc(O)c(c3)Oc3cc(O)cc4c3)c3ccc(O)c(c3)-c3c(O[C@H]4O[C@H](CO)[C@@H](O)[C@@H](O)[C@@H]4O)cc(O)cc3[C@@H](C(=O)O)NC2=O)O[C@@H](CO)[C@@H](O)[C@@H]1O
Hepatotoxicity (granulomatous hepatitis): 0
//
compound: CC(C)(N)C(=O)N[C@H](COCc1ccccc1)C(=O)N1CCC2(CC1)CN(S(C)(=O)=O)c1ccccc12
Hepatotoxicity (granulomatous hepatitis): 0
//
compound: COc1ccc2nc(NC(=O)Nc3ccccc3)sc2c1
Hepatotoxicity (granulomatous hepatitis): 0
//
compound: COc1cc2nc(N3CCN(C(=O)C4COc5ccccc5O4)CC3)nc(N)c2cc1OC (centres undefined)
Hepatotoxicity (granulomatous hepatitis): 0
